Values from paper PMC11220031

Target: LAT2–4F2hc complex (Homo sapiens, UniProt Q9UHI5, V391F)
Construct: LAT2–4F2hc heteromeric complex used for MST; construct, host and tags only in supplement; with Amino acid transporter heavy chain SLC3A2 (4F2 cell-surface antigen heavy chain)
Sequence (Q9UHI5 1-535 V391F): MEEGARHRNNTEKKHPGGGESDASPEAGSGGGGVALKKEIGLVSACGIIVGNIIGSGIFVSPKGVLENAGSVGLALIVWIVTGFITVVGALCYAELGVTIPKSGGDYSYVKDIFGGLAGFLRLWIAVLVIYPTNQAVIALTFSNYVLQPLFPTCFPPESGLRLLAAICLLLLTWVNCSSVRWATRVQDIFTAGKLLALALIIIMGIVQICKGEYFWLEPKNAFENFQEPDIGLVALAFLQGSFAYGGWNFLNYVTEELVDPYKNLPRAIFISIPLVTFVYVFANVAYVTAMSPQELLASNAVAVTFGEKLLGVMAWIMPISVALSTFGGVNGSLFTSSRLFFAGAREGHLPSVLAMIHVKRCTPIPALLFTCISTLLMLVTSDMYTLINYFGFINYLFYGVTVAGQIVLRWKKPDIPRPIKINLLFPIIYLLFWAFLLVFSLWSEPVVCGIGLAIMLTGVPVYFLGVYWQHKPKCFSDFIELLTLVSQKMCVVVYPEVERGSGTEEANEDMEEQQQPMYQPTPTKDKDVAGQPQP
Sequence (P08195 2-529 partner): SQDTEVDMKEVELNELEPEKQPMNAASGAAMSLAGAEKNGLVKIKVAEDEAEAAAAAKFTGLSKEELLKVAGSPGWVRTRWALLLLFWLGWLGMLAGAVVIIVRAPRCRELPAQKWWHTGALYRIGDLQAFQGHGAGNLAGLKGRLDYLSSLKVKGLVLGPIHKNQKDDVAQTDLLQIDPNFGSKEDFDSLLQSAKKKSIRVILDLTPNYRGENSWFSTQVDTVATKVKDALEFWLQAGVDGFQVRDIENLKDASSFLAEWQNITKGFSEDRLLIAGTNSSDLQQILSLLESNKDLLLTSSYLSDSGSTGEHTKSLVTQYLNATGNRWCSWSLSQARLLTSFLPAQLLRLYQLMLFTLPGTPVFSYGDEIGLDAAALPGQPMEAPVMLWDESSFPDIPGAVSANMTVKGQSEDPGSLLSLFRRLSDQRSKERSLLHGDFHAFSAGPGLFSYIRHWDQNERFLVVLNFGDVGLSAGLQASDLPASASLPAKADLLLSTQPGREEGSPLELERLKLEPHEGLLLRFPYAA
Experiment: microscale thermophoresis (MST)
Conditions: read-out: binding affinity
pKd: −log10 of the molar value.
Reported Property: pKd

>>> value_reported("Nc1cc(COc2c(Cl)cc(C[C@H](N)C(=O)O)cc2Cl)c2oc(-c3ccccc3)nc2c1")
5.75

###

Target: LAT1–4F2hc complex (Homo sapiens, UniProt Q01650, F400V)
Construct: full-length LAT1–4F2hc heteromeric complex, purified by size-exclusion chromatography; with Amino acid transporter heavy chain SLC3A2 (4F2 cell-surface antigen heavy chain)
Sequence (Q01650 2-507 F400V, one chain of several): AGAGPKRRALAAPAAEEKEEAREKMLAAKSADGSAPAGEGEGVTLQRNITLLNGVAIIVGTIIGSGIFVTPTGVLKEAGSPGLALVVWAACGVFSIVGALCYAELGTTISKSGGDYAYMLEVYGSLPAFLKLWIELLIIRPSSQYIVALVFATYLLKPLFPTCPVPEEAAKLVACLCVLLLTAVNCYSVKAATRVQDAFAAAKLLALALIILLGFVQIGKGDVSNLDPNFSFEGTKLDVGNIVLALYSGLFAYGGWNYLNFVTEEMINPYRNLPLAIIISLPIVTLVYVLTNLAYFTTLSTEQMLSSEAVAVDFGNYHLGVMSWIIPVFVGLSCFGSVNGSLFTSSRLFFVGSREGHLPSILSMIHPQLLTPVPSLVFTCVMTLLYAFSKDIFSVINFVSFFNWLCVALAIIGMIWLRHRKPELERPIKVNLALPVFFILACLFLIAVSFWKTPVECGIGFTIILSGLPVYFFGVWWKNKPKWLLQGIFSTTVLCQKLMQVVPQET
Assay: microscale thermophoresis (MST)
Details: read-out: binding affinity
Reported Property: Kd

>>> value_reported("Nc1cc(COc2c(Cl)cc(C[C@H](N)C(=O)O)cc2Cl)c2oc(-c3ccccc3)nc2c1")
"6.21 µM"

###

Molecular target: LAT2–4F2hc complex (Homo sapiens)
Construct: LAT2–4F2hc heteromeric complex used for MST; construct, host and tags only in supplement; with Amino acid transporter heavy chain SLC3A2 (4F2 cell-surface antigen heavy chain)
Experiment: microscale thermophoresis (MST)
Conditions: read-out: binding affinity
pKd: −log10 of the molar value.
Reported Property: pKd

>>> value_reported("Nc1cc(COc2c(Cl)cc(C[C@H](N)C(=O)O)cc2Cl)c2oc(-c3ccccc3)nc2c1")
5.35
